Numbers sourced from the nanobody polyreactivity screen of Harvey et al. (2022).

Assay: yeast display, Sf9 membrane polyspecificity reagent, FACS + sequencing; frameworks hold sequencing errors

>  <chainSequence>
QLQLVESGGGLVQAGGSLRISCAASGFTFRYYAMGWYRQAPGKERKFVAGIDFGAITNYADSVKGRFTISRDNAKNTEYLQMSSLKPEDTAVYYCAAGVYDWYAYDYWGQGTQVTVSS

>  <polyreactivity (PSR sort gate)>
high polyreactivity

$$$$
>  <chainSequence>
QVQLVESGGGLVQAGGSLRLSCAASGRIIYTYAMAWYRQAPGKERELVAAISWSGGSTYYADSVKGRFTISRDNAKNTVYLQMNSMKPEDTAVYYCNAAYYGYENLSKRGYWGQGTQVTVSS

>  <polyreactivity (PSR sort gate)>
high polyreactivity

$$$$
>  <chainSequence>
QVQLVESGGGLVQAGGSLRLSCAASGSIFVEYAMGVYREAPGKERELVATINLSAGSTYYADSVKGRFTISRDNAMNTGYLQMNRLKPEDTAVYYCAALYYWDQPQLEFSYLGQGTQVTVSS

>  <polyreactivity (PSR sort gate)>
low polyreactivity

$$$$
>  <chainSequence>
QVHLVESGGGLVQAGGSLRLSCAASGSTIFLYMGWYRQAPGKERELVAAITVSGGSTYYADSVKGRFTISRDNAKNTVYLQMNSLKPEDTAVYYCNADWVLRYDYWGLGTQVTVSS

>  <polyreactivity (PSR sort gate)>
low polyreactivity

$$$$
>  <chainSequence>
QVQLVESGGGLVQAGGSLRLSCAASRFIFYSNAMGWYRTAPGKERELVASITGDGGTTYYADSVKGRFTISRDNAKNNVYLQMNSLKPEDTAVYYCAKDYIYRGYYTDFRYEDYDYWGQGTQVTVSS

>  <polyreactivity (PSR sort gate)>
low polyreactivity

$$$$

###

Test: yeast display, Sf9 membrane polyspecificity reagent, FACS + sequencing; frameworks hold sequencing errors

>  <chainSequence>
QVQLVESGGGLVQAGGSLRLSCAASGSTFRYYGMGWYRQAPGKERELVAAISTGGRTNYADSVKGRFTISRDNAKNTVYLQMNSLKPEDTAVYYCAADFLSPAYRPSWYRFDYWGQGTQVTVSS

>  <polyreactivity (PSR sort gate)>
low polyreactivity

$$$$
>  <chainSequence>
QVQLVESGGGLVQAGGSLRLSCAASGSIFYRYAMGWYRQAPGKERELVAAITQSTDSTYYADSVKGRFTISRDNAKNTVYLQMNSLKPEDSAVYYCDAYLVYYRPYAYGYWGQGTQVTVSS

>  <polyreactivity (PSR sort gate)>
low polyreactivity

$$$$
>  <chainSequence>
QVQLVESGGGLDQAGGSLRLSCAASGSTFGYYAMGWYREAPGKERELVASITSDGSTNYADSVKGRFTISRDNAKNTVYLQMNSLKPEDTAVYYCAAYVWRYWHEYDYWGQGTLVTVSS

>  <polyreactivity (PSR sort gate)>
low polyreactivity

$$$$
>  <chainSequence>
QDQLVESGGCLVQAGGSLPLSCAASVFTFSNNVMGWYRQAPGQVRELVATLSKSGGSTYYAVSVKVRFTISRDKAKNSVYLQMNSLNPEATEVYYCASRFGDYGRFAYWGQGTQVSVSS

>  <polyreactivity (PSR sort gate)>
high polyreactivity

$$$$
>  <chainSequence>
QVQLVESGGGLVQAGGSLRLSCAASGFTFGTYAMGWYRQAPGKERELVARITSGGRTNYADSVKGRFTISRDNAKNTVYLQMNSLKPEDTAVYYCNAVNGYYWGSRFDYWGQGTQVTVSS

>  <polyreactivity (PSR sort gate)>
high polyreactivity

$$$$

###

Experiment: yeast display, Sf9 membrane polyspecificity reagent, FACS + sequencing; frameworks hold sequencing errors

>  <chainSequence>
QVQLVESGGGLVQAGGSLRLSCAASGFTFYGNAMGWYRQAPGKERDLVAAITGRAGRTYYADSVKGRFTISRDNSKNTVYLQMNSLKPEDTAVYYCAVQVAQSRTFSTYGYWGQGTQVTVSS

>  <polyreactivity (PSR sort gate)>
high polyreactivity

$$$$
>  <chainSequence>
QVQLVESCGGLVQAGASLRLSCAASGSTFKYYTMGWYIQSPGKERELVAAISFSGARTYYADSVKGRFTISRDNAKNNVYLQMNSLKPEDTAVYYCAKRATWYTVPREGYWGQGTLVTVSS

>  <polyreactivity (PSR sort gate)>
high polyreactivity

$$$$
>  <chainSequence>
QVQLGESGGRLVQAGGSLRLSCAASGSTFPTNAMGWSRQGPGKERELVAAITSTGSTYADSVKGRYTISRDNVKNTVYLQMNSVKPEDTAVYYCAADTQWTTPYDYWGQGTQVTVSS

>  <polyreactivity (PSR sort gate)>
low polyreactivity

$$$$
>  <chainSequence>
QVQLVESGGGLVQAGGSLRLSCAASGSIFVDNAMGWYRQAPGKERELVAAINWSGGSTYYADSVKGRFTISRDNAKNTVYLQMNSLKQEDTAVYYCNAARPVQTWDEQSWYDYWGQGTQVTVSS

>  <polyreactivity (PSR sort gate)>
low polyreactivity

$$$$
>  <chainSequence>
QVQLVESGGGLVQAGGSLRLSCAASGSIYVNKAMGWYRQAPGKERELVAAISRSGTRTYYADSVKGRFTISRDNAKNTVYLQMNSLKPEDTAVYYCAVDYYYRMDYWGQGTQVTVSS

>  <polyreactivity (PSR sort gate)>
high polyreactivity

$$$$

###

Experiment: yeast display, Sf9 membrane polyspecificity reagent, FACS + sequencing; frameworks hold sequencing errors
readoutLabel: polyreactivity (PSR sort gate)

>  <chainSequence>
QVQLVESGGGLVQAGGSLRLSCASSGNIFVAYAMGWYRQAPGKERELVAAITSGGRTYADSVKGRFTISRDNAKNTVYLQMNSLKPEDTAVYYCNADPYYVYLGYYDRYYSGYGYWGQGTQVTVSS

>  <readoutLabel>
polyreactivity (PSR sort gate)

>  <measurement>
low polyreactivity

$$$$
>  <chainSequence>
QVQLVESGGGLVQAGGSLRLSCAASGRIFDSYTMGWYRQAPGKERELVAAISRGGGSTYYADSVKGRFTISRDNAKNTVYLQMNSLKPEDTAVYYCAASSYLNSRFKFDYWGQGTQVTVSS

>  <readoutLabel>
polyreactivity (PSR sort gate)

>  <measurement>
low polyreactivity

$$$$
>  <chainSequence>
QVQLVESGGGLVQAGGSLRLSCAASGSIFVIYAMGWYRQAPGKERELVAAITYSGGSTYYADSVKGRFTISRDNAKNTVYLQMNSLKPEDTAVYYCAAVRDSRYYDYDYWGQGTQVTVSS

>  <readoutLabel>
polyreactivity (PSR sort gate)

>  <measurement>
low polyreactivity

$$$$
>  <chainSequence>
QVQLVESGGGLVQAGGSLRLSCAASGFIFPDYGMGSYRQAPGKERELVAAIYRNGVSTYYADSVKGRFTISRDNAKNTVYLQMKSLKPEDTAVYYCAARFYRIRRVSKSGYYWGLGTQVTVSS

>  <readoutLabel>
polyreactivity (PSR sort gate)

>  <measurement>
low polyreactivity

$$$$
>  <chainSequence>
QVQLVESGGGLVQAGGSLRLSCAASGITFHDNAMGWYRQAPGKERELVAVITRRGGRTYYADSVKGRFTISRDNAKNTVYLQMNSLKPEDTAVYYCAAYYDYTHRFYYWGQGTQVTVSS

>  <readoutLabel>
polyreactivity (PSR sort gate)

>  <measurement>
high polyreactivity

$$$$
>  <chainSequence>
QVQLGESGGGLVQAGGSLRLSCAASGFIFCYYAMGWYRQAPVKERELVAAITSGGRTYYSESVKGRFTISLDNAKNTFYLQMNSMKPEDTSVYYCNVVLRSVVSGDYWGQGTQVTVSS

>  <readoutLabel>
polyreactivity (PSR sort gate)

>  <measurement>
high polyreactivity

$$$$
>  <chainSequence>
QVQLEESGGGLVQAGGSLRLSCAASGSTNVKYAMGWYRQAPGKERELVAAITYSGDSTYYADSLKGRFTSSRDNAKNTVYLQINSLKPEDTAVYYWAAELVVRYMVSDYELEYWGQGTQVTVSS

>  <readoutLabel>
polyreactivity (PSR sort gate)

>  <measurement>
low polyreactivity

$$$$
>  <chainSequence>
QVQLVESGGGLVQAGGSLRLSCAASGLTFYRYAMGWYRQAPGKERELVAAITSGTRTYYADSVKGRFTISRDNAKNTVYLQMNSLKPEDTAVYYCAFRQGWYHFRYDYWGQGTQVTVSS

>  <readoutLabel>
polyreactivity (PSR sort gate)

>  <measurement>
high polyreactivity

$$$$
>  <chainSequence>
QVQLVESGGGLVQAGGSLRLRCAASGRTFSAYAMGWYRQAPGKERELVAAISRRGGSTYYADSVKWRFTISRDNAKNTVYFQMNSLKPSDTAVYYCAADVYKQYGFYYWGQVTQVTVSS

>  <readoutLabel>
polyreactivity (PSR sort gate)

>  <measurement>
high polyreactivity

$$$$
>  <chainSequence>
QVQLVESGGGLVQAGGSLRLSCAASGSSFNSYAMGWYRQAPGKERELVASITRGGSTYYADSVKGRFTISRDNAKTTVYLQMNSLKPEDTAVYYCAARFTQHNYWAMDYRGQGTQVTVSS

>  <readoutLabel>
polyreactivity (PSR sort gate)

>  <measurement>
high polyreactivity

$$$$
>  <chainSequence>
QVQLVESGGGLVQAGGSLRLSCAASGSIFDDNAMGWYRQAPGKEREMVAAISANDGSTYYADSVKGRFTISRDNAKNTVYLQRNSLNPEDTAVYYCAADVKDYAAQMDSWGQGTQVTVSS

>  <readoutLabel>
polyreactivity (PSR sort gate)

>  <measurement>
low polyreactivity

$$$$
